- run.description: NCI Yeast Anticancer Drug Screen. Data for the rad50 strain (AID 155);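 note: 0% = growth of vehicle-only cultures of the same strain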
- recorded.conditions: S. cerevisiae rad50 strain growth inhibition; at 50.0 µM; hits give high values
About 79,000 compounds went through this panel and 15% of them were active in at least one assay; those are over-represented in the sample as a whole.
Would you kindly list growth inhibition for each of these compounds?
Unit % implied. Number only.

// growth inhibition value for O=C1c2ccccc2C(=O)N1/N=C/c1cc(Br)ccc1O : 22.2

growth inhibition recorded for this compound, Cc1ccc(C)c(NC(=O)/C(=N\N)C(c2cnc3ccc([N+](=O)[O-])cc3n2)[N+](=O)[O-])c1 (stereo unspecified) , is 42.5

Value of growth inhibition reported for the compound COC(=O)c1cc(NC(=O)CC(=O)c2cccc(N)c2)cc(C(=O)OC)c1 is -3.8

response.value for C(=N\n1cnnc1)/c1ccc2c(c1)CCC2 (field: growth inhibition) = -21.6

Looking up N#CCCOc1ccccc1 , I see its growth inhibition listed as -1.3

Record NC(=O)c1ccccc1OCC(O)CO (stereo unspecified) . Reported growth inhibition: -7.6

Value of growth inhibition reported for the compound O=C(O)CCCC(=O)Nn1c(Cc2ccc(Cl)cc2)n[nH]c1=O is 7.75

response.value for Cc1ccc(Cl)cc1NCN1C(=O)c2ccccc2C1=O (field: growth inhibition) = 1.35

Lab note: Cc1ccc2c(sc(-c3ccc4c(c3)sc(-c3ccc5c(c3)sc(-c3ccc(N(C)C)cc3)[n+]5C)[n+]4C)[n+]2C)c1S(=O)(=O)O (tested in a mixture with another compound) gave growth inhibition of 27.7

Sample C=CCn1c2c(c3ccccc3c1=O)C(=O)c1ccccc1-2 ; growth inhibition observed: 43.9

Measured growth inhibition of c1ccc(N(c2ccccc2)c2ccccc2)cc1 : 5

* * *

Kindly state growth inhibition for each of the entries shown.
- run.description: NCI Yeast Anticancer Drug Screen. Data for the rad50 strain (AID 155);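 note: 0% = growth of vehicle-only cultures of the same strain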
- recorded.conditions: S. cerevisiae rad50 strain growth inhibition; at 50.0 µM; hits give high values
The panel holds about 79,000 compounds, 15% with a hit somewhere; the sample as a whole holds those more often.
Just the number please, in %, no unit attached.

Form field growth inhibition, entry c1coc(-c2nc(N=C3N=c4ccccc4=N3)[nH]c2-c2ccco2)c1 : 16.6

The measured growth inhibition associated with CC(=O)c1cccc(OCc2ccccc2)c1 reads 6.4

Record COc1cc(-c2cc(=O)c3c(O)cc(C)cc3o2)cc(OC)c1OC . Reported growth inhibition: -0.85

// sample O=CNC(Cc1ccc(O)cc1)C(=O)O (stereo not given) , its growth inhibition was 4.1

GET /value?item= Cn1c2c(c3ccccc3c1=O)C(=O)c1ccccc1-2 &field=growth inhibition returns 43

Form field growth inhibition, entry Oc1cc(Br)ccc1C=Nc1ccc(N2CCCCC2)cc1 : 25.4

So for COC(=O)c1cnn2c1n[n+]([O-])c1ccccc12 , the logged growth inhibition turned out to be -36.3

Measured growth inhibition of O=C(O)c1ccc(NCn2c(=S)[nH]c3ccccc32)cc1O : -7.6

growth inhibition reported for this molecule CCOc1ccc(Br)cc1/C=C1\N=C(c2ccccc2)OC1=O : -2.25

// growth inhibition lookup, molecule = COC(=O)C(Cc1nc2ccccc2[nH]c1=O)C(=O)C(=O)Nc1cc(C(F)(F)F)ccc1Cl (stereo not given) , result: 5.3

Field growth inhibition (entry COc1cc(-c2nc(SC)nc3c2CCc2ccccc2-3)cc(OC)c1OC ) reads -6

So for Cc1ccc(NC(=O)/C=C/C(=O)O)c(NC(=O)/C=C/C(=O)O)c1 , the logged growth inhibition turned out to be 4.8

Just so you know, measured growth inhibition for N=C1N=C(N)CS1 came out at 2.6

Looking up CCOC(=O)c1c(N)sc2c1CCN(Cc1ccccc1)C2 , I found its growth inhibition recorded as 39.4

growth inhibition recorded for this molecule, CCOC(=O)C(C#N)N=Nc1ccccc1 (stereo not given) , is 10.2

Lookup result for O=C1NC(C2CC3C=CC2C3)Nc2ccccc21 (stereo not given) ; measured growth inhibition: 6.75

The molecule listed as COc1ccc(/C=N/N2C(=O)c3ccccc3C2=O)cc1OC shows growth inhibition equal to 21

Notebook: C[n+]1ccc(/C=C\c2ccc3c(c2)OCO3)cc1 , growth inhibition read as -1.4

Notebook: N#[N+]c1ccc2c(S(=O)(=O)O)cccc2c1O , growth inhibition read as -17.9

Record summary for O=C(O)C1=C(C2CCCCC2)C(=O)c2ccccc21 : reported growth inhibition = 7.75

CCOC(=O)c1c(C)nc(C)c(C(=O)OCC)c1-c1cccc([N+](=O)[O-])c1 has a reported growth inhibition of 29.1

Value of measured growth inhibition for the entry CCCCOc1cc(C(=O)NCCN(CC)CC)c2ccccc2n1 : -2.1

Per the record, Nc1n[nH]c(=S)n1-c1ccc(Cl)cc1 has growth inhibition of -14.3

Measured growth inhibition of CC(=O)C(/C=N/C(N)=O)=C(/C)O : 5.4

# molecule OCC(CO)(CO)COCC(CO)(CO)COCC(CO)(CO)CO ; its growth inhibition = -43

* * *

- run.description: NCI Yeast Anticancer Drug Screen. Data for the cln2 rad14 strain (AID 165);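 note: 0% = growth equal to vehicle treated cultures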
- recorded.conditions: S. cerevisiae cln2 rad14 strain, at 50.0 µM, hits give high values
This is part of a sample that, as a whole, favours compounds with a hit. Of some 79,000 tested, about 15% had one in any assay.
experimental.endpoint: growth inhibition (%)
Answer in %, number only, no unit symbol.

// field: growth inhibition; key: CC/C(Cl)=N\OC(=O)Nc1ccc(OC)cc1 ; value = 2.6

Form field growth inhibition, entry C=CC(COC(=O)C(C)(C)OC(C)=O)c1ccc(OC(=O)C(C)C)c(OC)c1 (configuration not stated) : -12.3

Measured growth inhibition of Clc1ccc(C2NN=C3c4ccccc4OCC32)cc1 (configuration not stated) : 7.85

The measured growth inhibition associated with NNc1[nH]c(=S)[nH]c1C(N)=O reads -7.65

Record CCC1OC2(C)CC(C#N)(C#N)C1(C#N)C(=N)O2 (configuration not stated) , field growth inhibition: -8.2

Please fill in: growth inhibition reported for O=C(O)COc1cc(-c2ccccc2F)nc2cc3c(cc12)OCO3 = 7.9

Summary for this molecule, CCOC(=O)COc1cc(-c2ccccc2)nc2cc(F)ccc12 : growth inhibition is -18.4

For record CN(C)c1ccc(/C=N/n2c(-c3ccccc3)nc3ccccc3c2=O)cc1 the listed growth inhibition is 13.4

CCCCCCCCCCCCC/C=C/[C@H]1[C@@H](C(=O)OC)N1S(=O)c1ccc(C)cc1 (some centres not stated) has a reported growth inhibition of -13.1

Short answer for OCCOCCOCCOCCO : growth inhibition was -48.1

The molecule listed as Cc1ccc(NC2=N/C(=C/c3ccccc3)C(Cl)=N2)cc1 shows growth inhibition equal to 10.9

response.value for N#CC1(C#N)C2CCCCC23OC(=N)C1(C#N)C(c1ccccc1)O3 (configuration not stated) (field: growth inhibition) = -15.3

* * *

- run.description: NCI Yeast Anticancer Drug Screen. Data for the mlh1 rad18 strain (AID 175)
- recorded.conditions: S. cerevisiae mlh1 rad18 strain growth inhibition; at 50.0 µM; hits give high values
About 79,000 compounds went through this panel and 15% of them were active in at least one assay; those are over-represented in the sample as a whole. Where a SMILES comes first, the peptide text is derived from it. [ ]: non-standard residue; d: D form. The star is where a group is joined. ξ: configuration not given here. ξV = CC(C)C(N)C(=O)O; ClAc = O=C(CCl)*
experimental.endpoint: growth inhibition (%)
Express it in %; write the number only.

For reference, reported growth inhibition for CC(=O)C(/C=N/C(N)=O)=C(/C)O stands at 2.55

The recorded growth inhibition for entry COc1ccc(CNc2ccccn2)cc1 equals 40.2

GET /value?item= N/N=C(\C(=O)Nc1ccc([N+](=O)[O-])cc1)C(C1=Nc2cc([N+](=O)[O-])ccc2NC1)[N+](=O)[O-] (configuration not stated) &field=growth inhibition returns 16.9

response.value for Cc1ccc(NC(=O)/C=C/C(=O)O)c(NC(=O)/C=C/C(=O)O)c1 (field: growth inhibition) = 28.8

Field growth inhibition (entry ClCCOC(OCCCl)OCCCl ) reads 4.85

response.value for S=C(NNc1ccccc1)NC1CCCCC1 (field: growth inhibition) = -8.6

Input O=C1OC(c2ccc(Cl)cc2)=N/C1=C\c1ccccc1 . Output growth inhibition: -6.65

Record Cc1ccc(/C=N/Nc2ccccn2)s1 , field growth inhibition: 0.7

Reported growth inhibition of CCCN(CCC)CCC(=O)OCC : -10.9

// CC(=O)Nc1ccc(/C=C/C(=O)c2ccc(Cl)cc2)cc1 : growth inhibition value = 2.75

Looking up CCn1c2c(c3ccccc3c1=O)C(=O)c1ccccc1-2 , I found its growth inhibition recorded as -49.4

The recorded growth inhibition for entry Cc1ccc(N2C(=O)CC(Sc3ccccc3N)C2=O)cc1 (configuration not stated) equals -9.3

Entry COc1cc(C)c2c(c1C=O)Oc1c(c(C)c(O)c3c1C(O)OC3=O)OC2=O (configuration not stated) — recorded growth inhibition = -60.3

The recorded growth inhibition for entry CCCCCCCCCCCCOc1ccc(C)cc1 equals 5.3

# growth inhibition (molecule: Fc1ccc(P(c2ccc(F)cc2)c2ccc(F)cc2)cc1 ) is 19.1

// sample COC(=O)C1CCC(=O)N1CN(C(C)=O)c1cccc(O)c1 (configuration not stated) , its growth inhibition was -52.3

The molecule COc1ccc(CCN2C(=O)CSC2=S)cc1OC showed growth inhibition equal to -2.6

molecule O=C1c2c(O)cc(O)cc2OC(c2ccc(O)c(O)c2)C1O (configuration not stated) , growth inhibition observed: -18.7

The molecule identified as COc1ccc(C(C#N)N2CCOCC2)cc1 (configuration not stated) registered its growth inhibition at 5.35

The molecule listed as NC(CCC(=O)OCc1ccccc1)C(=O)OCc1ccccc1 (configuration not stated) shows growth inhibition equal to 9.25

Note to self: growth inhibition recorded for Cc1ccc2nc3c(nc2c1)-c1cccc2cccc-3c12 was -12.4

// sample N#Cc1nc(C(F)(F)F)oc1N , its growth inhibition was -42.4

Noted for Cc1ccc(Cl)cc1NCN1C(=O)c2ccccc2C1=O : its growth inhibition reads 11.1

Sure, the documented growth inhibition for Cc1ccc2c(c1)=N/C(=N\c1nc(O)c(O)[nH]1)N=2 is -4.55

growth inhibition for O=C(/C=C(\[O-])c1ccccc1)CCCCCCC(=O)/C=C(\[O-])c1ccccc1.O=C(/C=C(\[O-])c1ccccc1)CCCCCCC(=O)/C=C(\[O-])c1ccccc1.O=C(/C=C(\[O-])c1ccccc1)CCCCCCC(=O)/C=C(\[O-])c1ccccc1.[Nd+3].[Nd+3] is 22.1

Lab book: growth inhibition of COc1cc(C(=O)N/N=C/c2ccc(N(C)C)cc2)cc(OC)c1OC noted as -20.8

Sample CC(C)C(NC(=O)CNC(=O)CCl)C(=O)O (configuration not stated) (ClAc-Gly-[ξV]-OH) ; growth inhibition observed: 4.1

Form: molecule = CC1OC23CCCCC2C(C#N)(C#N)C1(C#N)C(=N)O3 (configuration not stated) ; growth inhibition = 2.95

Lab book: growth inhibition of Cc1ccc2c(sc(-c3ccc4c(c3)sc(-c3ccc5c(c3)sc(-c3ccc(N(C)C)cc3)[n+]5C)[n+]4C)[n+]2C)c1S(=O)(=O)O (tested in a mixture with another compound) noted as 70.4

The recorded growth inhibition for COc1ccc(C(C(N)=O)N2CCCC2)cc1 (configuration not stated) is 16.6

CN(C)c1ccc2c(Nc3ccc(NS(C)(=O)=O)cc3)c3ccc(N(C)C)cc3nc2c1 yielded growth inhibition of 65.6

# growth inhibition (molecule: N#CC1(C#N)C2CCCCC23OC(=N)C1(C#N)C(c1ccccc1)O3 (configuration not stated) ) is -16.6

Just so you know, measured growth inhibition for Cc1ccc(/C=N/Nc2nncc3ccccc23)s1 came out at 38.5

The recorded growth inhibition for entry CC(=N/N=C/c1ccccn1)/C(C)=N/N=C(C)/C(C)=N/N=C(C)/C(C)=N/N=C(C)/C(C)=N\N=C\c1ccccn1 equals -21.6

The measured growth inhibition associated with CCCCC1C(=O)N(c2ccc(S(=O)(=O)Nc3ccccn3)cc2)N(c2ccc(O)c(C(=O)O)c2)C1=O (configuration not stated) reads 8.85

The measured growth inhibition associated with O=C(/C=C(\[O-])c1ccccc1)CCCCCCC(=O)/C=C(\[O-])c1ccccc1.O=C(/C=C(\[O-])c1ccccc1)CCCCCCC(=O)/C=C(\[O-])c1ccccc1.O=C(/C=C(\[O-])c1ccccc1)CCCCCCC(=O)/C=C(\[O-])c1ccccc1.[Y+3].[Y+3] reads -1.85

# growth inhibition of CC(C)/C(Cl)=N/OC(=O)Nc1cccc(C(F)(F)F)c1 = -91.7

So, Cc1ccccc1Nc1n[nH]c(=S)s1 ? Its growth inhibition was 33

growth inhibition reported for this molecule COC(=O)c1nc(Br)cnc1N : -0.45

Note to self: growth inhibition recorded for CC1CC(C(=O)OC2OC(COC3OC(CO)C(OC4OC(C)C(O)C(O)C4O)C(O)C3O)C(O)C(O)C2O)C2CCC3(C)C(=CCC4(C)C3CCC3C(C)(CO)C(O)C(O)CC34C)C2C1C (configuration not stated) was 24.4

Form: molecule = CC1=CC(=O)c2ccc(C)cc2C1=O ; growth inhibition = 5.85

// sample CCCCCCC(C/C=C\CCCCCCCC(=O)OC)OC(C)=O (configuration not stated) , its growth inhibition was -4.5
